# target-desc: protein-protein interaction between Kras and SOS1 (biotin-tagged human Kras loaded with GDP, His-tagged human SOS1) (Homo sapiens (Human), UniProt P01116, G12D)
# assay-summary: Protein-protein interaction inhibition between Kras and SOS1 (KrasG12D-SOS PPI) using AlphaScreen
# Assay type: biochemical
# particulars: AlphaScreen; biotin-tagged human Kras loaded with GDP, His-tagged human SOS1; read-out: KRAS G12D-SOS PPI IC50
Numbered stars: 1 amine (or outer) side, 2 acyl side, 3 side chain; on linkers, the order of the positions; unused ones are H or OH. Bridge positions count the residues as written; N and C are the ends. Square brackets hold non-standard residues; d marks the D form. Peptide text beside a SMILES is read from it. * marks the point of attachment. hPhe(3-Cl-4-CF3) = N[C@@H](CCc1ccc(C(F)(F)F)c(Cl)c1)C(=O)O; X33 = O=C([C@H](CCc1c(F)c(F)c(F)c(F)c1F)N[*:1])[*:2]; NMePhe(4-Cl) = CN[C@@H](Cc1ccc(Cl)cc1)C(=O)O; NMeGly(cPent) = CN[C@H](C(=O)O)C1CCCC1; NMeF = CN[C@@H](Cc1ccccc1)C(=O)O; NMeD = CN[C@@H](CC(=O)O)C(=O)O; NMeL = CN[C@@H](CC(C)C)C(=O)O; d(β3hA) = C[C@@H](N)CC(=O)O; NMeS = CN[C@@H](CO)C(=O)O; NMeA = CN[C@@H](C)C(=O)O; Pyrrolidide = C1CCN(*)C1; Ac5c = NC1(C(=O)O)CCCC1; Aze = O=C(O)[C@@H]1CCN1; Sar = CNCC(=O)O; Propyl = CCC*

# compound, IC50 (nM)
measured = [
    ("CC[C@H](C)[C@@H]1NC(=O)[C@H](C)N(C)C(=O)C[C@@H](C)NC(=O)[C@H](CC(C)C)N(C)C(=O)[C@H](Cc2ccccc2)N(C)C(=O)[C@H](CC(C)C)NC(=O)[C@H](CCc2c(F)c(F)c(F)c(F)c2F)NC(=O)CN(C)C(=O)[C@H](Cc2ccc(Cl)cc2)N(C)C(=O)CN(C)C(=O)CN(C)C1=O [Compound 2091] (cyclo(I[Sar][Sar][NMePhe(4-Cl)][Sar][X33]L[NMeF][NMeL][d(β3hA)][NMeA]))", 270),
    ("CCCOC[C@H]1C(=O)N(C)CC(=O)N[C@@H](CCc2ccc(C(F)(F)F)c(Cl)c2)C(=O)N2CCC[C@H]2C(=O)NC2(CCCC2)C(=O)N(C)[C@@H](C2CCCC2)C(=O)N(C)[C@H](C(=O)N2CCCC2)CC(=O)N(C)[C@@H](CC(C)C)C(=O)N[C@@H]([C@@H](C)CC)C(=O)N(C)[C@@H](C)C(=O)N2CC[C@H]2C(=O)N1C [Compound 836] ([NMeL]I[NMeA][Aze][NMeS](Propyl)[Sar][hPhe(3-Cl-4-CF3)]P[Ac5c][NMeGly(cPent)][NMeD]-Pyrrolidide; lactam N-11)", 0.66),
]

* * *

# target-desc: protein-protein interaction between Kras and SOS1 (biotin-tagged human Kras loaded with GDP, His-tagged human SOS1) (Homo sapiens (Human), UniProt P01116, G12D)
# assay-summary: Protein-protein interaction inhibition between Kras and SOS1 (KrasG12D-SOS PPI) using AlphaScreen;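 also: kras produced in E. coli, Ni-coupled donor beads and streptavidin acceptor beads, excitation 680 nm with emission detected at 520–620 nm via singlet oxygen transfer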
# Format: biochemical
# particulars: AlphaScreen; biotin-tagged human Kras loaded with GDP, His-tagged human SOS1; read-out: KRAS G12D-SOS PPI IC50
Numbered stars: 1 amine (or outer) side, 2 acyl side, 3 side chain; on linkers, the order of the positions; unused ones are H or OH. Bridge positions count the residues as written; N and C are the ends. Square brackets hold non-standard residues; d marks the D form. Peptide text beside a SMILES is read from it. * marks the point of attachment. hPhe(3-Cl-4-CF3) = N[C@@H](CCc1ccc(C(F)(F)F)c(Cl)c1)C(=O)O; NMePhe(4-CF3) = CN[C@@H](Cc1ccc(C(F)(F)F)cc1)C(=O)O; 3Oxa8azabicyclo(3.2.1)octane = C1CC2COCC1N2*; NMedβ3hAla = C[C@H](CC(=O)[*:2])N(C)[*:1]; NMeGly(cPent) = CN[C@H](C(=O)O)C1CCCC1; Hyp = O=C(O)[C@@H]1C[C@@H](O)CN1; NMeAhp(2) = CCCCC[C@H](NC)C(=O)O; NMeI = CC[C@H](C)[C@H](NC)C(=O)O; NMeD = CN[C@@H](CC(=O)O)C(=O)O; NMeL = CN[C@@H](CC(C)C)C(=O)O; NMeS = CN[C@@H](CO)C(=O)O; Ac5c = NC1(C(=O)O)CCCC1; Aze = O=C(O)[C@@H]1CCN1; Sar = CNCC(=O)O; Propyl = CCC*
value-kind: IC50 (nM)

# molecule, value-kind, measured-number
data = [
    ("CCCCC[C@H]1C(=O)N[C@@H]([C@@H](C)CC)C(=O)N[C@@H](C)C(=O)N2CC[C@H]2C(=O)N(C)[C@@H](COCCC)C(=O)N(C)CC(=O)N[C@@H](CCc2ccc(C(F)(F)F)c(Cl)c2)C(=O)N2CCC[C@H]2C(=O)NC2(CCCC2)C(=O)N(C)[C@@H](C2CCCC2)C(=O)N(C)[C@H](C(=O)N2C3CCC2COC3)CC(=O)N1C [Compound 163] ([NMeAhp(2)]IA[Aze][NMeS](Propyl)[Sar][hPhe(3-Cl-4-CF3)]P[Ac5c][NMeGly(cPent)][NMeD]-{3Oxa8azabicyclo(3.2.1)octane}; lactam N-11)", "IC50", 6.1),
    ("CCO[C@@H]1C[C@H]2C(=O)NC3(CCCC3)C(=O)N(C)[C@@H]([C@@H](C)CC)C(=O)N(C)[C@H](C)CC(=O)N(C)[C@@H](CC(C)C)C(=O)N[C@@H]([C@@H](C)CC)C(=O)N(C)CC(=O)N(C)CC(=O)N(C)[C@@H](Cc3ccc(C(F)(F)F)cc3)C(=O)N(C)CC(=O)N[C@@H](CCc3ccc(C(F)(F)F)c(Cl)c3)C(=O)N2C1 [Compound 695] (cyclo([Ac5c][NMeI][NMedβ3hAla][NMeL]I[Sar][Sar][NMePhe(4-CF3)][Sar][hPhe(3-Cl-4-CF3)][Hyp](Et)))", "IC50", 2.3),
]
